Assay: Cytotoxicity against human SKBR3 cells assessed as growth inhibition at 10 uM after 2 days by MTT assay
Assay type: functional
Details: SK-BR-3, 48 h, read-out: GI
measurement label: inhibition of growth at 10 µM

Some compounds with known inhibition of growth at 10 µM results, for comparison:
CNC(=O)c1cc(Oc2ccc3nc(NC(=O)Nc4ccc(Cl)cc4)sc3c2)ccn1 :: 50.8%
CNC(=O)c1cc(Oc2ccc3nc(NC(=O)Nc4ccc(F)cc4F)sc3c2)ccn1 :: 61.6%

Now for the compound whose inhibition of growth at 10 µM we want.
// query Field request: inhibition of growth at 10 µM | item: "CNC(=O)c1cc(Oc2ccc3nc(NC(=O)Nc4ccc(F)cc4)sc3c2)ccn1"
// result 14.2%

====

Test: Antiproliferative activity against human TK10 cells assessed as cell growth at 10^-6 M after 48 hrs by sulforhodamine B assay
Assay type: functional
Conditions: TK-10, 48 h, read-out: Activity
measurement label: growth at 1 µM (%)
Value expressed in %; do not type the unit.

Some compounds with known growth at 1 µM results, for comparison:
CNC(=O)c1cc(Oc2ccc3nc(NC(=O)c4cc(C(F)(F)F)cc(C(F)(F)F)c4)sc3c2)ccn1 :: 97
CNC(=O)c1cc(Oc2ccc3nc(NC(=O)Nc4ccc(Cl)c(Cl)c4)sc3c2)ccn1 :: 113
CNC(=O)c1cc(Oc2ccc3nc(NC(=O)Nc4cc(C(F)(F)F)cc(C(F)(F)F)c4)sc3c2)ccn1 :: 87

Now for the compound whose growth at 1 µM we want.
// query Field request: growth at 1 µM | item: "CNC(=O)c1cc(Oc2ccc3nc(NC(=O)Nc4ccc(Cl)c(C(F)(F)F)c4)sc3c2)ccn1"
// result 109

====

Here the recorded activity at 5 min, 10 µM is given for each entry.
Target: CYP1A2 (Homo sapiens)
Sequence (P05177 whole entry): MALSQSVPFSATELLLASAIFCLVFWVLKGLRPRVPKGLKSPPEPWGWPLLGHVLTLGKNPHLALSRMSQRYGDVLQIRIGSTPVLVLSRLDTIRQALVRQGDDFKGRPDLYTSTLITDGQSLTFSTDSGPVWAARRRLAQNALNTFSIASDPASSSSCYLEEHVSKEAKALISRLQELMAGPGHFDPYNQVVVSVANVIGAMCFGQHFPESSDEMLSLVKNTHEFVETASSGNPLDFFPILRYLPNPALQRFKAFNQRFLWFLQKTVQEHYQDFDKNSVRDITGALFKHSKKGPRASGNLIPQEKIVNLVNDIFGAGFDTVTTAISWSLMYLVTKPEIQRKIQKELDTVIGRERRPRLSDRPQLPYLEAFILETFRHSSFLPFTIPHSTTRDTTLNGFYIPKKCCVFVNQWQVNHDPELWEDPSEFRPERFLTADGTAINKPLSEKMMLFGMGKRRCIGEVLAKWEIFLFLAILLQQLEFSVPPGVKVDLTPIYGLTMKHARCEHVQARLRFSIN
Assay: Inhibition of recombinant human CYP1A2 assessed as remaining enzyme activity using CYP1A2 blue as substrate at 10 uM after 5 mins in presence of NADP by fluorescence plate reader analysis
Format: ADME
Conditions: recombinant human CYP1A2, probe CYP1A2 blue, read-out: Activity
For clarity, give the value followed by its unit.

CNC(=O)c1cc(Oc2ccc3nc(NC(=O)c4cc(C(F)(F)F)cc(C(F)(F)F)c4)sc3c2)ccn1 :: 98.3%
CNC(=O)c1cc(Oc2ccc3nc(NC(=O)Nc4ccc(Cl)c(C(F)(F)F)c4)sc3c2)ccn1 :: 106%
CNC(=O)c1cc(Oc2ccc3nc(NC(=O)Nc4cc(C(F)(F)F)cc(C(F)(F)F)c4)sc3c2)ccn1 :: 110%

// query Identify the measured activity at 5 min, 10 µM of "CNC(=O)c1cc(Oc2ccc3nc(NC(=O)Nc4ccc(Cl)c(Cl)c4)sc3c2)ccn1" for CYP1A2 (Homo sapiens).
// result 104%
